B1: HDV Ribozyme (parent)
chain: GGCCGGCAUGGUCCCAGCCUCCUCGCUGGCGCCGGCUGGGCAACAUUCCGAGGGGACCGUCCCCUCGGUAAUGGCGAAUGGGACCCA

Variants of: B1
ASSAY: self-cleavage, relative activity (ratio to wild type); higher = more cleavage; co-transcriptional
REPORTED_METRIC: self-cleavage

G28C C84U: 0.0396
C33A C64G: 0.289
U20C C63G: 0.104
A45C U47A: 0.911
U47G G54A: 1.18
U12C C24U: 0.0791

*Q* What measured self-cleavage goes with C36A A56G ?
*A* 0.145

*Q* Please do the same for C3U C48A as well.
*A* 0.675

*Q* Please do the same for C13U C66G as well.
*A* 0.589

*Q* Please do the same for C44U U69G as well.
*A* 0.957

*Q* Please do the same for C21G A83U as well.
*A* 0.0875

*Q* Please do the same for C7U G38C as well.
*A* 0.0462

*Q* Please do the same for G67C G80A as well.
*A* 0.464

*Q* Please do the same for U79A C84A as well.
*A* 0.539

*Q* Please do the same for G55C A70U as well.
*A* 0.96

*Q* Please do the same for C49U A70U as well.
*A* 0.877

*Q* Please do the same for U69A A83G as well.
*A* 0.712

*Q* Please do the same for C24G U79A as well.
*A* 0.0898

*Q* Please do the same for G1C C66A as well.
*A* 0.19

*Q* Please do the same for C7U A43U as well.
*A* 0.475

*Q* Please do the same for G28C C57A as well.
*A* 0

*Q* Please do the same for C18A A78G as well.
*A* 0.131

Source listed as the RNAGym collection of RNA variant scans (doi:10.7554/elife.80360).
